- targetOfAssay: D6 Fab (rabbit)
- Sequence (heavy, as listed by the source, chain 1 of 2): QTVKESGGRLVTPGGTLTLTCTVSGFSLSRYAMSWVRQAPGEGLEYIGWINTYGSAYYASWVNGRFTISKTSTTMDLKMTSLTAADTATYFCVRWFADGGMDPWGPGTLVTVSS
- Sequence (light, as listed by the source, chain 2 of 2): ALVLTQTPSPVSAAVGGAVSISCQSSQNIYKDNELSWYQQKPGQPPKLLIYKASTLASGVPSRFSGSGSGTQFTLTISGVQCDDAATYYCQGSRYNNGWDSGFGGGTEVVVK
- experimentalProtocol: SPR; Biacore T200; each Fab immobilised on a CM5 chip by amine coupling; increasing concentrations of free peptide injected; running buffer PBS with 0.005% Tween 20; global fit, steady-state analysis where dissociation was fast
Where no end group is shown, it is not given here. Me3 = trimethyl-lysine
measuredMetric: pKd
Remember, pKd is on a log scale: it is -log10 of the molar concentration.

Challenge: What pKd value was documented for this binder, NPIFEKFGK(Me3)GGTYP [Methylated MAP3K2 peptide, …(me3)GGTYP] ?
Response given: 7.27
